- System: pERK in PSN1 cells
- assay-notes: Inhibition of KRas phosphorylation of ERK (Cisbio HTRF pERK assay)
- assay-conditions: Homo sapiens, PSN1, 3 h, read-out: Inhibition (HTRF IC50) of KRas-mediated Phosphorylation of ERK, PSN1
Give measured pIC50 for each item. Keep answers brief.
The read-out pIC50 is expressed as -log10 of concentration in moles per litre.

Which pIC50 value is on record for Oc1cc(-c2ncc3c(N4CCCC5(CC(O)C5)C4)nc(OC[C@@]45CCCN4C[C@H](F)C5)nc3c2F)c2c(Cl)c(F)ccc2c1 (stereo partly shown) ? 6.04

Which pIC50 value is on record for CCc1c(F)ccc2cc(O)cc(-c3ncc4c(N5CCC[C@@](C)(O)C5)nc(OC[C@@]56CCCN5C[C@H](F)C6)nc4c3F)c12 ? 6.44

Which pIC50 value is on record for CCc1c(F)ccc2cc(O)cc(-c3ncc4c(N5CCCC6(CCC6O)C5)nc(OC[C@@]56CCCN5C[C@H](F)C6)nc4c3F)c12 (stereo partly shown) ? 5.14

Which pIC50 value is on record for Oc1cc(-c2ncc3c(N4CCCC5(CC(O)C5)C4)nc(OC[C@@]45CCCN4C[C@H](F)C5)nc3c2F)c2c(Br)c(F)ccc2c1 (stereo partly shown) ? 5.88

###

- study-system: KRas G12D (Homo sapiens, UniProt P01116, G12D);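 further: TR-FRET displacement binding assay on KRas, read after a one-hour incubation at room temperature, IC50 fitted from percent-of-control values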
- Sequence (P01116 1-169 isoform P01116-2 G12D): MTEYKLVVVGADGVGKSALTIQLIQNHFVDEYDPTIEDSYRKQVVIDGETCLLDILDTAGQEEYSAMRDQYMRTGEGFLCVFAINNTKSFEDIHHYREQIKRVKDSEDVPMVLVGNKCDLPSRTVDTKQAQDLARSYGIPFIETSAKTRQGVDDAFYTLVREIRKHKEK
- assay-notes: biochemical
assay-metric: IC50 (nM)
Numeric answer only, unit nM assumed.

Which IC50 value is on record for O=C1NCC2(CCCN(c3nc(OCC45CCCN4CCC5)nc4c(F)c(-c5cccc6cccc(Cl)c56)ncc34)C2)N1 (centres unmarked) ? 38

Which IC50 value is on record for OC1CCN(c2nc(OCC34CCCN3CCC4)nc3c(F)c(-c4cccc5cccc(F)c45)ncc23)CC1 ? 15500

Which IC50 value is on record for CCc1c(F)ccc2cc(O)cc(-c3ncc4c(NC5CS(=O)(=O)C5)nc(OC[C@@]56CCCN5C[C@H](F)C6)nc4c3F)c12 ? 5

Which IC50 value is on record for Fc1c(-c2cccc3cccc(F)c23)ncc2c(N3CCCn4nccc4C3)nc(OCC34CCCN3CCC4)nc12 ? 2990

###

Give measured pIC50 for each item. Keep answers brief.
- study-system: KRas G12R (Homo sapiens, UniProt P01116, G12R)
- Sequence (P01116 1-169 isoform P01116-2 G12R): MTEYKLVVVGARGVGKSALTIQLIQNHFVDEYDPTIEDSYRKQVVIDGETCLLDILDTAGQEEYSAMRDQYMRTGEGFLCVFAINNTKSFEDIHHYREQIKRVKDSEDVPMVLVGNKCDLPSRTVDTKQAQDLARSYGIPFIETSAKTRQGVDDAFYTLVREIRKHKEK
- assay-notes: biochemical
pIC50: −log10 of the molar value.

Param readout= pIC50; system= KRas G12R (Homo sapiens, UniProt P01116, G12R); entry= Oc1cc(-c2ncc3c(N4CCC[C@]5(C4)C[C@@H](O)C5)nc(OC[C@@]45CCCN4C[C@H](F)C5)nc3c2F)c2c(F)c(F)ccc2c1 (single isomer, unassigned) [Example 442] ; returns value. ≥ 8.70

Param readout= pIC50; system= KRas G12R (Homo sapiens, UniProt P01116, G12R); entry= CN(C)CC1(COc2nc(N3CCCC4(CNS(=O)(=O)N4)C3)c3cnc(-c4cc(O)cc5ccc(F)c(Cl)c45)c(F)c3n2)CC1 (stereo not drawn) [Example 428] ; returns value. ≥ 8.70

Param readout= pIC50; system= KRas G12R (Homo sapiens, UniProt P01116, G12R); entry= CCc1c(F)ccc2cc(O)cc(-c3ncc4c(N5CCCn6nc(C(=O)NC(C)C)cc6C5)nc(OC[C@@]56CCCN5C[C@H](F)C6)nc4c3F)c12 [Example 357] ; returns value. ≥ 8.70

###

Give measured IC50 for each item. Keep answers brief.
- study-system: KRas Q61H (Homo sapiens, UniProt P01116, Q61H)
- Construct: Biotinylated KRas (corresponding to amino acids 1-169, produced at Accelegan Inc.); biotin (biotinylated); purchased Accelegan Inc
- Sequence (P01116 1-169 isoform P01116-2 Q61H): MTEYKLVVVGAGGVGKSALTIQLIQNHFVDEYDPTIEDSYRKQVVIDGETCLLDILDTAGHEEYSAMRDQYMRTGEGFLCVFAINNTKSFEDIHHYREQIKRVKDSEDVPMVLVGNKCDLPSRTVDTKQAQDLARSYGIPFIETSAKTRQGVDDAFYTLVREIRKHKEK
- assay-notes: KRas binding assay (TR-FRET displacement);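 further: TR-FRET signal read after one hour at room temperature, IC50 derived by four-parameter fitting of percent-of-control values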
Hi, when you answer, please include the unit after the number. Thanks!

Which IC50 value is on record for CC1CC(O)CCN(c2nc(OCC34CCCN3CCC4)nc3c(F)c(-c4cccc5cccc(F)c45)ncc23)C1 (stereo not shown) [Example 116] ? 5200 nM

Which IC50 value is on record for CC1(O)CCCN(c2nc(OCC34CCCN3CCC4)nc3c(F)c(-c4cccc5cccc(F)c45)ncc23)C1 (stereo not shown) [Example 17] ? 1860 nM

Which IC50 value is on record for O=C1NC(=O)C2(CCCN(c3nc(OCC45CCCN4CCC5)nc4c(F)c(-c5cccc6cccc(F)c56)ncc34)C2)N1 (stereo not shown) [Example 158] ? 102 nM

Which IC50 value is on record for Nc1cc2n(n1)CCCN(c1nc(OCC34CCCN3CCC4)nc3c(F)c(-c4cccc5cccc(F)c45)ncc13)C2 [Example 78] ? 3300 nM

###

- System: phospho-ERK in MKN1 (WTdep) cells
- assay-notes: Inhibition of KRas-mediated phosphorylation of ERK (in-cell western)
- Assay type: cell-based
- assay-conditions: Homo sapiens, MKN-1, 3 hours compound, phospho-ERK normalized to GAPDH
assay-metric: log10 IC50 (log10 of the value in nM)
Could you please treat all values as log10 of IC50 in nM?

Which log10 IC50 value is on record for CC1(O)CCCN(c2nc(OCC34CCCN3CCC4)nc3c(F)c(-c4cc(O)cc(Cl)c4C4CC4)ncc23)C1 (centres unmarked) ? 2.15

Which log10 IC50 value is on record for C#Cc1c(F)ccc2cc(O)cc(-c3ncc4c(N5CCOC[C@@](C)(O)C5)nc(OC[C@@]56CCCN5C[C@H](F)C6)nc4c3F)c12 ? 0.30

Which log10 IC50 value is on record for CCc1c(F)ccc2cc(O)cc(-c3ncc4c(NCc5cccnc5N)nc(OC[C@@]56CCCN5C[C@H](F)C6)nc4c3F)c12 ? 0.85

Which log10 IC50 value is on record for CCc1c(F)ccc2cc(O)cc(-c3ncc4c(N5CCC[C@@]6(CNC(=O)N6)C5)nc(OC[C@@]56CCCN5C[C@H](F)C6)nc4c3F)c12 ? 1.57

Which log10 IC50 value is on record for CCc1c(F)ccc2cc(O)cc(-c3ncc4c(NCc5ccc6nccn6c5)nc(OC[C@@]56CCCN5C[C@H](F)C6)nc4c3F)c12 ? 1.15

Which log10 IC50 value is on record for CCc1c(F)ccc2cc(O)cc(-c3ncc4c(Nc5ccon5)nc(OC[C@@]56CCCN5C[C@H](F)C6)nc4c3F)c12 ? 3.80

Which log10 IC50 value is on record for C#Cc1c(F)ccc2cccc(-c3ncc4c(N5CCC[C@@](C)(O)C5)nc(OC[C@@]56CCCN5C[C@H](F)C6)nc4c3F)c12 ? 2.94

Which log10 IC50 value is on record for CCc1c(F)ccc2cc(O)cc(-c3ncc4c(N5CCCC6(CNC(=O)N6)C5)nc(OC[C@@]56CCCN5C[C@H](F)C6)nc4c3F)c12 (some centres unmarked) ? 2.23

Which log10 IC50 value is on record for CCc1c(F)ccc2cc(O)cc(-c3ncc4c(N5CC(n6ccnc6)C5)nc(OC[C@@]56CCCN5C[C@H](F)C6)nc4c3F)c12 ? 2.25

Which log10 IC50 value is on record for CCc1c(F)ccc2cc(O)cc(-c3ncc4c(NCc5c[nH]cn5)nc(OC[C@@]56CCCN5C[C@H](F)C6)nc4c3F)c12 ? 2.32

Which log10 IC50 value is on record for CCc1c(F)ccc2cc(O)cc(-c3ncc4c(NCc5cn[nH]c5)nc(OC[C@@]56CCCN5C[C@H](F)C6)nc4c3F)c12 ? 2.16

Which log10 IC50 value is on record for CCc1c(F)ccc2cc(O)cc(-c3ncc4c(N5CCOCC(CO)C5)nc(OC[C@@]56CCCN5C[C@H](F)C6)nc4c3F)c12 (some centres unmarked) ? 0.90

###

Give measured IC50 for each item. Keep answers brief.
- study-system: KRas G12R (Homo sapiens, UniProt P01116, G12R)
- assay-notes: biochemical

Which IC50 value is on record for O=C1NC(=O)C2CN(c3nc(OC[C@@]45CCCN4C[C@H](F)C5)nc4c(F)c(-c5cc(O)cc6ccc(F)c(Cl)c56)ncc34)CC12 (stereo partly drawn) [Example 423] ? ≤ 2 nM

Which IC50 value is on record for CCc1c(F)ccc2cc(O)cc(-c3ncc4c(NC56CC(O)(C5)C6)nc(OC[C@@]56CCCN5C[C@H](F)C6)nc4c3F)c12 [Example 166] ? ≤ 2 nM

Which IC50 value is on record for CCc1c(F)ccc2cc(O)cc(-c3ncc4c(N5CCCC(NS(N)(=O)=O)C5)nc(OC[C@@]56CCCN5C[C@H](F)C6)nc4c3F)c12 (stereo partly drawn) [Example 352] ? ≤ 2 nM

###

- study-system: KRas G12R (Homo sapiens, UniProt P01116, G12R);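 further: TR-FRET displacement assay of compound binding to KRas, read after one hour at room temperature, potency from a four-parameter fit of percent-of-control values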
- assay-notes: biochemical
Give measured IC50 for each item. Keep answers brief.

Which IC50 value is on record for CCc1c(F)ccc2cc(O)cc(-c3ncc4c(NCC5CNC(=O)C5)nc(OC[C@@]56CCCN5C[C@H](F)C6)nc4c3F)c12 (some centres unmarked) [Example 60] ? ≤ 2 nM

Which IC50 value is on record for CCc1c(F)ccc2cc(O)cc(-c3ncc4c(NCCc5c[nH]c6ncccc56)nc(OC[C@@]56CCCN5C[C@H](F)C6)nc4c3F)c12 [Example 157] ? ≤ 2 nM

Which IC50 value is on record for CCc1c(F)ccc2cc(O)cc(-c3ncc4c(N5CCCC6(CC(=O)NC6=O)C5)nc(OC[C@@]56CCCN5C[C@H](F)C6)nc4c3F)c12 (some centres unmarked) [Example 318] ? ≤ 2 nM

Which IC50 value is on record for O=S1(=O)NCC2(CCCN(c3nc(OC[C@@]45CCCN4C[C@H](F)C5)nc4c(F)c(-c5cc(O)cc6ccc(F)c(Br)c56)ncc34)C2)N1 (some centres unmarked) [Example 411] ? ≤ 2 nM

Which IC50 value is on record for CCc1c(F)ccc2cc(O)cc(-c3ncc4c(N5CCCn6nc(C(=O)N(C)C)c(Cl)c6C5)nc(OC[C@@]56CCCN5C[C@H](F)C6)nc4c3F)c12 [Example 504] ? ≤ 2 nM
